tested on: Subgenomic HCV RNA replicon cells (LucNeo#2); assay: Cytotoxicity (cell survival rate) by tetrazolium staining in luciferase replicon cells; assay type: cell-based; details: LucNeo#2 subgenomic replicon cells
Criterion: CC50 strictly less than 9 µM. Met: TRUE. Not met: FALSE.

COMPOUND: CCCCn1c(=O)c2cc(OC)ccc2c2cc(C(O)(C(F)(F)F)C(F)(F)F)c(OC)c(OC)c21 [HA-727]
STUDY_TARGET: Subgenomic HCV RNA replicon cells (LucNeo#2)
GROUP: TRUE
//
COMPOUND: CCCCn1c(=O)c2cc(OC)ccc2c2cc(C(OCc3ccccc3)(C(F)(F)F)C(F)(F)F)c3c(c21)OCO3 [HA-758]
STUDY_TARGET: Subgenomic HCV RNA replicon cells (LucNeo#2)
GROUP: FALSE
//
COMPOUND: CCCCn1c(=O)c2ccccc2c2cc(C(O)(C(F)(F)F)C(F)(F)F)c(OC)c(OC)c21 [HA-726]
STUDY_TARGET: Subgenomic HCV RNA replicon cells (LucNeo#2)
GROUP: FALSE
//
COMPOUND: CCCCn1c(=O)c2ccccc2c2cc(C(O)(C(F)(F)F)C(F)(F)F)c(OC)cc21 [KZ36]
STUDY_TARGET: Subgenomic HCV RNA replicon cells (LucNeo#2)
GROUP: TRUE
//
COMPOUND: CCCCn1c(=O)c2c(OC)cccc2c2cc(C(O)(C(F)(F)F)C(F)(F)F)ccc21 [KZ31]
STUDY_TARGET: Subgenomic HCV RNA replicon cells (LucNeo#2)
GROUP: FALSE
//
COMPOUND: CCCCn1c(=O)c2c(OC)cc(OC)cc2c2cc(C(O)(C(F)(F)F)C(F)(F)F)ccc21 [KZ38]
STUDY_TARGET: Subgenomic HCV RNA replicon cells (LucNeo#2)
GROUP: TRUE
//
COMPOUND: CCCCn1c(=O)c2c(OC)c(OC)ccc2c2cc(C(O)(C(F)(F)F)C(F)(F)F)ccc21 [KZ27]
STUDY_TARGET: Subgenomic HCV RNA replicon cells (LucNeo#2)
GROUP: FALSE
//
COMPOUND: CCCCn1c(=O)c2ccccc2c2cc(C(OCc3ccccc3)(C(F)(F)F)C(F)(F)F)c(OC)cc21 [KZ37]
STUDY_TARGET: Subgenomic HCV RNA replicon cells (LucNeo#2)
GROUP: FALSE
//
COMPOUND: CCCCn1c(=O)c2cc(OC)ccc2c2cc(C(O)(C(F)(F)F)C(F)(F)F)c3c(c21)OCO3 [HA-719]
STUDY_TARGET: Subgenomic HCV RNA replicon cells (LucNeo#2)
GROUP: TRUE
//
COMPOUND: CCCCn1c(=O)c2ccccc2c2c(OC)c(C(OC)(C(F)(F)F)C(F)(F)F)cc(OC)c21 [KZ29]
STUDY_TARGET: Subgenomic HCV RNA replicon cells (LucNeo#2)
GROUP: FALSE
//
COMPOUND: CCCCn1c(=O)c2ccc(OC)cc2c2cc(C(O)(C(F)(F)F)C(F)(F)F)ccc21 [KZ32]
STUDY_TARGET: Subgenomic HCV RNA replicon cells (LucNeo#2)
GROUP: FALSE
//
COMPOUND: CCCCn1c(=O)c2cc(OC)ccc2c2c(OC)c(C(OC)(C(F)(F)F)C(F)(F)F)cc(OC)c21 [KZ30]
STUDY_TARGET: Subgenomic HCV RNA replicon cells (LucNeo#2)
GROUP: FALSE
//
COMPOUND: CCCCn1c(=O)c2c(OC)c(OC)c(OC)cc2c2cc(C(O)(C(F)(F)F)C(F)(F)F)ccc21 [KZ39]
STUDY_TARGET: Subgenomic HCV RNA replicon cells (LucNeo#2)
GROUP: TRUE
//
COMPOUND: CCCCn1c(=O)c2ccccc2c2cc(C(O)(C(F)(F)F)C(F)(F)F)c3c(c21)OCO3 [HA-718]
STUDY_TARGET: Subgenomic HCV RNA replicon cells (LucNeo#2)
GROUP: FALSE
//
COMPOUND: CCCCn1c(=O)c2cc(OC)c(OC)cc2c2cc(C(O)(C(F)(F)F)C(F)(F)F)ccc21 [KZ25]
STUDY_TARGET: Subgenomic HCV RNA replicon cells (LucNeo#2)
GROUP: TRUE
//
COMPOUND: CCCCn1c(=O)c2ccccc2c2c(O)c(C(O)(C(F)(F)F)C(F)(F)F)ccc21 [KZ35]
STUDY_TARGET: Subgenomic HCV RNA replicon cells (LucNeo#2)
GROUP: FALSE
//
COMPOUND: CCCCn1c(=O)c2cc(OC)c(OC)c(OC)c2c2cc(C(O)(C(F)(F)F)C(F)(F)F)ccc21 [KZ28]
STUDY_TARGET: Subgenomic HCV RNA replicon cells (LucNeo#2)
GROUP: FALSE
//
COMPOUND: CCCCn1c(=O)c2cccc(OC)c2c2cc(C(O)(C(F)(F)F)C(F)(F)F)ccc21 [KZ33]
STUDY_TARGET: Subgenomic HCV RNA replicon cells (LucNeo#2)
GROUP: TRUE
//
COMPOUND: CCCCn1c(=O)c2cc3c(cc2c2cc(C(O)(C(F)(F)F)C(F)(F)F)ccc21)OCO3 [KZ26]
STUDY_TARGET: Subgenomic HCV RNA replicon cells (LucNeo#2)
GROUP: FALSE
